As shown below, each of these compounds has a reported IC50 value.
test system: Raji; experiment: Cytotoxicity against human Raji cells assessed as reduction in cell viability measured after 24 hrs by CCK-8 assay; type: functional, cell-based
Write it as a number; the unit µM goes unstated.

Known IC50 results, listed for orientation:
>>> df
                                   compound  measured_result
0  C=CC(=O)N1C(=O)CC(c2ccc(F)cc2)Sc2ccccc21 (centres undefined)             28.4
1  C=CC(=O)N1C(=O)CC(c2ccc(C#N)cc2)Sc2ccccc21 (centres undefined)             84.5
2  C=CC(=O)N1C(=O)CC(c2ccc(C(F)(F)F)cc2)Sc2ccccc21 (centres undefined)             47.6

Identify IC50 associated with the compound C=CC(=O)N1C(=O)CC(c2ccc(Br)cc2)Sc2ccccc21 (centres undefined)
51.3

Identify IC50 associated with the compound C=CC(=O)N1C(=O)CC(c2ccc(Cl)cc2)Sc2ccccc21 (centres undefined)
18.4

Identify IC50 associated with the compound C=CC(=O)N1C(=O)CC(c2ccc(C(=O)OC)cc2)Sc2ccccc21 (centres undefined)
89.6

Identify IC50 associated with the compound C=CC(=O)N1C(=O)CC(c2ccc(-c3ccccc3)cc2)Sc2ccccc21 (centres undefined)
56.3

Identify IC50 associated with the compound C=CC(=O)N1C(=O)CC(c2ccc(N3CCOCC3)cc2)Sc2ccccc21 (centres undefined)
56.2

Identify IC50 associated with the compound C=CC(=O)N1C(=O)CC(c2ccc([N+](=O)[O-])cc2)Sc2ccccc21 (centres undefined)
34.8

###

target: UniProtKB P49841; assay: Inhibition of recombinant human GSK-3beta using GS-2 peptide as substrate incubated for 30 mins in presence of ATP by kinase-glo luminescence assay
Sequence (P49841 whole entry): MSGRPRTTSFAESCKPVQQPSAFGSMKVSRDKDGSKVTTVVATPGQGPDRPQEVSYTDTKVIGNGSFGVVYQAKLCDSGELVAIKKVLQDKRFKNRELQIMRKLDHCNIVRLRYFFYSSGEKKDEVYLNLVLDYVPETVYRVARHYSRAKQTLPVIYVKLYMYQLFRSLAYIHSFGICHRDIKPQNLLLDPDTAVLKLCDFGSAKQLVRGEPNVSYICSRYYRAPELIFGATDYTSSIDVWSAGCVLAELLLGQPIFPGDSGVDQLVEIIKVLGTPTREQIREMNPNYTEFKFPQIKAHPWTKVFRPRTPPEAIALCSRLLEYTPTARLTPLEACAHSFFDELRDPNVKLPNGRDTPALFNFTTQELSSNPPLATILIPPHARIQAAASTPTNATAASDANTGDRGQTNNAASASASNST
measured.attribute: pIC50
Units for pIC50: none; it is -log10 of a concentration expressed in mol/L.

In [3]: df
Out[3]:
                                   compound  measured_attribute  measured_result
0  C=CC(=O)N1C(=O)CC(c2ccc(OC)cc2)Sc2ccccc21 (configuration not stated)               pIC50             5.21
1               C=CC(=O)N1C(=O)CCSc2ccccc21               pIC50             4.77
2  C=CC(=O)N1C(=O)CC(c2ccc(C)cc2)Sc2ccccc21 (configuration not stated)               pIC50             5.32
3  C=CC(=O)N1C(=O)CC(c2ccc(Br)cc2)Sc2ccccc21 (configuration not stated)               pIC50             5.19
4  C=CC(=O)N1C(=O)CC(c2ccc(C(F)(F)F)cc2)Sc2ccccc21 (configuration not stated)               pIC50             4.82

Please look at the following compound next.
Identify pIC50 associated with the compound C=CC(=O)N1C(=O)CC(c2ccc([N+](=O)[O-])cc2)Sc2ccccc21 (configuration not stated)
5.12

Sourced from ChEMBL document CHEMBL5036319
